The following sequences are listed with their measured RUNX1 binding intensity values.
Target: RUNX1 (UniProt Q01196)
Sequence (Q01196 whole entry): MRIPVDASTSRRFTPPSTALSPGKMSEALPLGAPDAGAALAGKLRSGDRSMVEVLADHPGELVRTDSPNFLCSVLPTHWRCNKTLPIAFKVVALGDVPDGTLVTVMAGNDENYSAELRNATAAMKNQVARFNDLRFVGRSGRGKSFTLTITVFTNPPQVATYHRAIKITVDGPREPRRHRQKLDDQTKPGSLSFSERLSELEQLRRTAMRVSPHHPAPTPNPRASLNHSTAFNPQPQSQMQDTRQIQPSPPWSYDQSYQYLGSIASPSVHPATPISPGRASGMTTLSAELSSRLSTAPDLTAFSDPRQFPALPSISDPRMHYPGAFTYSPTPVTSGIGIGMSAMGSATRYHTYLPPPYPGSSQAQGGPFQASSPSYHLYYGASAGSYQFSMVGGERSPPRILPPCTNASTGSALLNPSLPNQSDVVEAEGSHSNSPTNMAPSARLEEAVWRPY
Experiment: RUNX1 binding intensity (PBM fluorescence), RUNX1 alone (arbitrary fluorescence units); higher = stronger binding
Details: RUNX1 concentration 2 nM; ETS1 concentration 0 nM
# respond with the number and nothing more

Study these solved cases before continuing.
[in] Quick one: RUNX1 binding intensity for ATCTCCACATCCTCCCCATCGACCGCATGGTTTACC ?
[out] 1970

[in] Also check TAAAGAAACAGGATGACTGTGGTTTACTGCGAGCAT
[out] 830

Continuing:
[in] Quick one: RUNX1 binding intensity for TACCCAGAAAGGAAGTGGAACCTGCGGTGAGGCCCC ?
[out] 875

[in] Also check TCACATCCTGTAATGGTTTGCGCATACCACAGTTCT
[out] 825

[in] Also check CGGAGGCGGCCGGAAGTAGCGCTGCGGTTGGCAGCT
[out] 937

###

The following sequences are listed with their measured ETS1 binding intensity values.
Biological target: ETS1 (UniProt P14921)
Sequence: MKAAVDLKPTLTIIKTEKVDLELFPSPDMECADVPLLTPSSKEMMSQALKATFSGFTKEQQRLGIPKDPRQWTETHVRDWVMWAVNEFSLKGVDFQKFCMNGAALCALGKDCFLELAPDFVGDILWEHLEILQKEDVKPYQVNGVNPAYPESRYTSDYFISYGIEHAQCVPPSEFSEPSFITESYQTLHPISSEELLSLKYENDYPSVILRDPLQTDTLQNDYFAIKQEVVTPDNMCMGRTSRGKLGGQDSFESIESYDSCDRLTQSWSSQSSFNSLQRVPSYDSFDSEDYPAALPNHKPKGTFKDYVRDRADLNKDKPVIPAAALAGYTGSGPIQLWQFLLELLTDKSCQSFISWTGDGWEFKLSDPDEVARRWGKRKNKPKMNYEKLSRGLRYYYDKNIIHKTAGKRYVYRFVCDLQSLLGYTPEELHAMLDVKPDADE
Assay: ETS1 binding intensity (PBM fluorescence), ETS1 alone (arbitrary fluorescence units); higher = stronger binding
Conditions: ETS1 concentration 1 nM; RUNX1 concentration 0 nM
# respond with the number and nothing more

Study these solved cases before continuing.
[in] Quick one: ETS1 binding intensity for TTCTGTAGCTTAGGATGTGGGTTTCTTTGTTTCTGA ?
[out] 452

[in] Also check TACCTACAGGAAATGAGACACACCGCAGGCCGATCC
[out] 2130

Continuing:
[in] Quick one: ETS1 binding intensity for TCTTGTTTCTTCCGTTACCGGAGCGCGGTCACGTGA ?
[out] 455

[in] Also check GGAGGTGGGGAGGAAGTTCTGAAACCACACACATTT
[out] 749

[in] Also check TGCCCAGTACTTCCTCTTGTGGGGGAGCACAACTTG
[out] 569

[in] Also check GCGATCGGAGCGGAAGTGGAGCTACCGCCACCGCCG
[out] 7540

[in] Also check ATGGGGAACGGGAAATACGGCGGGAACCACAATCGC
[out] 734

[in] Also check CAGTGAACAGTTTCCTGTTCCTGTGGTTTTGACTTT
[out] 1230

###

Biological target: ETS1 (UniProt P14921)
Sequence: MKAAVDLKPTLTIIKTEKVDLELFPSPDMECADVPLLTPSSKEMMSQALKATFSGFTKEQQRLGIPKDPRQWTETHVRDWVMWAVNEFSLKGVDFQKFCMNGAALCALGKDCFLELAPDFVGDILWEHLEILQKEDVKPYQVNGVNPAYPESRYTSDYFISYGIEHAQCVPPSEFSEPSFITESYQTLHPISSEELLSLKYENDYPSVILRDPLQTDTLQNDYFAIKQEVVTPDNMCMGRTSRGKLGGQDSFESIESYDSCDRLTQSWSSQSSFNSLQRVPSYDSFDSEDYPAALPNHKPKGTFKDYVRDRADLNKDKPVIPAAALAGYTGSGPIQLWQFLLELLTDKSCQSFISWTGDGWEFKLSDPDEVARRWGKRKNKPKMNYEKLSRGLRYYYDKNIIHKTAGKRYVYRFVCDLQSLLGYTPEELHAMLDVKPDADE
Test: ETS1 binding intensity (PBM fluorescence), ETS1 alone (arbitrary fluorescence units); higher = stronger binding
Details: ETS1 concentration 1 nM; RUNX1 concentration 0 nM
Give 1 (yes) when the value for ETS1 binding intensity is at least 600. Give 0 (no) when it is less.

[in] Is the recorded value of ETS1 binding intensity equal to or greater than 600 for this sequence? TCAGAACCAGGAAACTGAAGGCGGTTACTCCACATA
[out] 0 (no)

[in] Also check GGCTGTGCTTCAGGATGTGGTAATGCTTGGGAGGCG
[out] 1 (yes)

[in] Also check GACTGGACAACTTCCTGGTGGAAAACCGCGACTCTT
[out] 1 (yes)

[in] Also check GATTGTTATGTCCGGAAACCGCTTATCAGAGCCCTG
[out] 1 (yes)

[in] Also check GGCTTCCGGCGGGGTACCCTCCTCTGTGGGCGGGGC
[out] 0 (no)

###

Molecular target: RUNX1 (UniProt Q01196)
Assay: RUNX1 binding intensity (PBM fluorescence), RUNX1 alone (arbitrary fluorescence units); higher = stronger binding
Conditions: RUNX1 concentration 2 nM; ETS1 concentration 0 nM
quantity kind: RUNX1 binding intensity

Study these solved cases before continuing.
[in] Quick one: RUNX1 binding intensity for GTACTGAGTCACAGGAAACCACAAGGGAAGGGTCCC ?
[out] 1570

[in] Also check ACCATAAGGACCGGAAGCAGAGACCACACTGGTGCT
[out] 831

[in] Also check ATCTTCCGTAGCAGTCAGGTGTTTTGTGGTTTGCAG
[out] 1490

Continuing:
[in] Quick one: RUNX1 binding intensity for GGTGGCAACATCCTGGGGAGGGGAACCCACAGGGGA ?
[out] 835

[in] Also check TGAGCCTTGGAAGGAAATGATTCACCACAATACTGT
[out] 831

###

Biological target: RUNX1 (UniProt Q01196)
Experiment: RUNX1 binding intensity (PBM fluorescence) in presence of ETS1, normalised to RUNX1-only experiment (arbitrary fluorescence units); higher = stronger binding
Conditions: RUNX1 concentration 2 nM; ETS1 concentration 25 nM
The following sequences are listed with their measured RUNX1 binding intensity values.

Study these solved cases before continuing.
[in] Quick one: RUNX1 binding intensity for CCATTTCCGCGCACGTCTGCAGATGCGGTAGTCGAT ?
[out] 1830

[in] Also check AATCATCAGGGAAATGCAAATCAAAACCACAATCAG
[out] 1300

[in] Also check GCGCTACAGGAACTTCCTGCGCGGTTGCTGTCGTTG
[out] 1180

Continuing:
[in] Quick one: RUNX1 binding intensity for GCTAACGGAACCAGCACGCGGCCACCGCAGGAACCT ?
[out] 869

[in] Also check GGGGCTGTGCTTCCGGCTGTTTGTGCGGTTTTGTGC
[out] 4340

[in] Also check CAGCAGAGGCGCGGATGTGGTTAAACGAGTGCCGTC
[out] 3670

[in] Also check AGCTTGCGCAGGAAGTCTGCGGCAGGAGGGCGTCCT
[out] 908

[in] Also check TCGCCCACTTCCCCACCTCTCAAAAGACCACAGGCA
[out] 2140

[in] Also check GATATGGCAGGAAGTAGGGCCTGGAAACCGCACGGC
[out] 2000

[in] Also check CCCAATTTCCTTTGCTCTGCTGTCTGCCAACCGCAA
[out] 4340

[in] Also check GCTTGCTCCCACAGGAAACCGCAGGCTTCGGGCACA
[out] 12000

[in] Also check AAGGTGGAAAAAGGATGTGGTTCTAAGCTGGCTTCT
[out] 1020

[in] Also check GAAACGTCACCCAGAGGAAACCCACAAGGGGCGTGG
[out] 836

[in] Also check CTGCACTTCCGGTCAGGCGGTCGGGCTGCGGGGCCC
[out] 2680

###

Target: ETS1 (UniProt P14921)
Sequence: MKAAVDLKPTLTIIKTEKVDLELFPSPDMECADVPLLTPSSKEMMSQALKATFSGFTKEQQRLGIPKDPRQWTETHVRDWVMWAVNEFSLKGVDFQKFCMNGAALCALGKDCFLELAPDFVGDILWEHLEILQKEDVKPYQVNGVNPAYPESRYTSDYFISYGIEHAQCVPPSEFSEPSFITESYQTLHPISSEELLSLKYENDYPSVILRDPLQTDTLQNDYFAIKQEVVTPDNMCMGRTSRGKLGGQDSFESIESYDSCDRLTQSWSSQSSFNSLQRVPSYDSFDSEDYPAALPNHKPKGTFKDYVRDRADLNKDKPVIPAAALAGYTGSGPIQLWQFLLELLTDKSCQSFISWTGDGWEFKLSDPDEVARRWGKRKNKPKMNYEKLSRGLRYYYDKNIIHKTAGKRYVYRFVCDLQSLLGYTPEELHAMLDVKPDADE
Assay: ETS1 binding intensity (PBM fluorescence), ETS1 alone (arbitrary fluorescence units); higher = stronger binding
Settings: ETS1 concentration 1 nM; RUNX1 concentration 0 nM
quantity kind: ETS1 binding intensity
# respond with the number and nothing more

[in] Form entry - test system: ETS1 (UniProt P14921); read-out: ETS1 binding intensity; sequence: GAAGCTACTCTGGTTTCCTGTGGTTTTCTGAGCACT
[out] 597

[in] Also check GGCCGGGGACGGAAGGCGGGCCCGCAGCAGATCCTG
[out] 475

[in] Also check AACCAAGAGGATTTCCTGCCCACACACTCAGCGTCT
[out] 870

Continuing:
[in] Form entry - test system: ETS1 (UniProt P14921); read-out: ETS1 binding intensity; sequence: CCAAGCACTTCCTGCTGTTAGCTTTGTGGGCTGAGT
[out] 826

[in] Also check CTGCCGCTGCCTTCCGCCCCCACACACGCACACCAC
[out] 686

[in] Also check TCTGTGACTACGCGGATGTTGTGGGCGGCTACATGC
[out] 1000

[in] Also check CCGGGCTGCGGAAGGCGGGAACTCTGCGGTTCGCGG
[out] 484

[in] Also check TCCCACTGCGACGGAAGCACAGCGGTTAAGATTGCA
[out] 821

[in] Also check GCGGAGGGAAGCGGAAATACTTGCGGTGGGGGCGAC
[out] 3700

[in] Also check GAGTTCTAGACTACAGGATGTGGTTAGAAGAAAAGA
[out] 4670

[in] Also check AACAGACAGGATGTGGCCTCTGCCAAAACCACCATC
[out] 3250

[in] Also check GCAGGGGCCCATTTCCTGCCACAAGCCCACACAGGA
[out] 1390

[in] Also check GTGTTCAGACGGAAGCGTTATTCAGTGGTCAGAGCA
[out] 741

[in] Also check GAGCCACCGGAAACGGAGCTGCGGCCGCGCCCCGCC
[out] 5340

[in] Also check CCTGACTTCCTCCTCCCCCTCCCGCCACAATTCCGC
[out] 1240

[in] Also check CTCTGCCCGCTTCCGCTGGCGGTACCTCAGAGCCGC
[out] 919

[in] Also check GCTCGCGTCATCCTGCAGCGCCGACACCACAGACAC
[out] 501

[in] Also check CTGGAGAGGATGTGGCCCCAGTGTGGTTCTGTAACT
[out] 610

[in] Also check GCAGGAAACGCTTTCTTAACACTATGTGGGTGAGGT
[out] 763

[in] Also check TGTCCGCACCCCACTTCCGCCCCGCAGAGGGCAACG
[out] 2960

[in] Also check CGAACGCCGGACGTTCTGGGCACGTGACCGCCACCC
[out] 643

[in] Also check ACCAGCCCAGGAAGCATCTGCGGTTCAAGTGGCCAC
[out] 452

[in] Also check CACCTCGGGGGTTTCCGGTCCGTGGTTAGCTCCTTC
[out] 2600

[in] Also check GCCATTAAAGCAGCTTCCTGTGGGCGCGGCGCAGGA
[out] 888

[in] Also check GCGGGGCGCAGGAAGCGGGGCGAAACCACTGTTGGC
[out] 1040
